TEST: Mitotoxicity / Mitotox safety margin (therapeutic window)
Format: cell-based
CONDITION NOTES: highest safe dose/EC50
MEASUREMENT KIND: Mito-Safety Index (highest safe dose/EC50)
Please respond with just the number, no unit label.

**Query** Item C[C@@H]1CN([C@H]2CCc3ccccc3[C@@H]2Nc2ncnc3[nH]c(C4CC4)cc23)C[C@H](C)O1 (single isomer, unassigned) has what recorded Mito-Safety Index (highest safe dose/EC50)?
**Result** 30.45

**Query** Item COC1CN([C@@H]2COc3ccccc3[C@H]2Nc2ncnc3[nH]c(C(F)(F)F)cc23)C1 has what recorded Mito-Safety Index (highest safe dose/EC50)?
**Result** 88.53

**Query** Item CO[C@@H]1CCN([C@H]2COc3ccccc3[C@@H]2Nc2ncnc3[nH]c(C4CC4)cc23)C1 has what recorded Mito-Safety Index (highest safe dose/EC50)?
**Result** 87.93

**Query** Item FC(F)OC1CN([C@H]2COc3ccccc3[C@@H]2Nc2ncnc3[nH]c(C(F)(F)F)cc23)C1 (single isomer, unassigned) has what recorded Mito-Safety Index (highest safe dose/EC50)?
**Result** 28.61

**Query** Item COC1CN([C@H]2COc3ccccc3[C@@H]2Nc2ncnc3[nH]c(C(F)(F)F)cc23)C1 [EP-0040849] has what recorded Mito-Safety Index (highest safe dose/EC50)?
**Result** 2.61

**Query** Item FC(F)(F)c1cc2c(NC3c4ccccc4OCC3N3C[C@@H]4COC[C@H]4C3)ncnc2[nH]1 (stereo partly shown) has what recorded Mito-Safety Index (highest safe dose/EC50)?
**Result** 77.08

**Query** Item CO[C@H]1CCN([C@H]2COc3ccccc3[C@@H]2Nc2ncnc3[nH]c(C(F)(F)F)cc23)C1 has what recorded Mito-Safety Index (highest safe dose/EC50)?
**Result** 121.36

* * *

Tested on: HeLa MKYP cells
TEST: Cell death measured by DAPI staining, with 1 μM FCCP/oligomycin or no toxin (no FO)
Format: cell-based
CONDITION NOTES: no FO; safe means DAPI+ <20%
MEASUREMENT KIND: Highest safe dose (cytotoxicity; no FO; safe means DAPI+ <20%) (µM)
Response body: numeric value in µM, unit text excluded.

**Query** Item FC(F)(F)c1cc2c(N[C@H]3c4ccccc4CC[C@@H]3N3C[C@H]4COC[C@H]4C3)ncnc2[nH]1 (single isomer, unassigned) [EP-0038582] has what recorded Highest safe dose (cytotoxicity; no FO; safe means DAPI+ <20%)?
**Result** 25.0

**Query** Item FC(F)(F)c1cc2c(N[C@H]3c4ccccc4OC[C@H]3C3CCCOC3)ncnc2[nH]1 (mixture of isomers) [EP-0041004] has what recorded Highest safe dose (cytotoxicity; no FO; safe means DAPI+ <20%)?
**Result** 25.0

**Query** Item c1ccc2c(c1)OC[C@H](C1CCOCC1)[C@H]2Nc1ncnc2[nH]c(C3CC3)cc12 (single isomer, unassigned) [EP-0040587] has what recorded Highest safe dose (cytotoxicity; no FO; safe means DAPI+ <20%)?
**Result** 25.0

* * *

So I've got a bunch of molecules here, and I need their Mito-Safety Index (highest safe dose/EC50) values.
TEST: Mitotoxicity / Mitotox safety margin (therapeutic window)
Format: cell-based
CONDITION NOTES: highest safe dose/EC50

**Query** Item C[C@@H]1CN([C@@H]2COc3ccccc3[C@H]2Nc2ncnc3[nH]c(C4CC4)cc23)C[C@H](C)O1 has what recorded Mito-Safety Index (highest safe dose/EC50)?
**Result** 27.95

**Query** Item c1ccc2c(c1)CC[C@H](C1CCOCC1)[C@H]2Nc1ncnc2[nH]c(C3CC3)cc12 (single isomer, unassigned) [EP-0040582] has what recorded Mito-Safety Index (highest safe dose/EC50)?
**Result** 68.01

**Query** Item CO[C@H]1CCN([C@H]2COc3ccccc3[C@@H]2Nc2ncnc3[nH]c(C4CC4)cc23)C1 has what recorded Mito-Safety Index (highest safe dose/EC50)?
**Result** 34.73

**Query** Item c1ccc2c(c1)CC[C@H](N1CCOCC1)[C@H]2Nc1ncnc2[nH]c(C3CC3)cc12 (racemic) [EP-0039677] has what recorded Mito-Safety Index (highest safe dose/EC50)?
**Result** 13.51

**Query** Item FC(F)(F)c1cc2c(N[C@H]3c4ccccc4CC[C@@H]3N3C[C@H]4COC[C@H]4C3)ncnc2[nH]1 has what recorded Mito-Safety Index (highest safe dose/EC50)?
**Result** 27.53

**Query** Item COC[C@H]1CCN([C@H]2COc3ccccc3[C@@H]2Nc2ncnc3[nH]c(C4CC4)cc23)C1 has what recorded Mito-Safety Index (highest safe dose/EC50)?
**Result** 21.52

**Query** Item c1ccc2c(c1)CC[C@H](C1CCOCC1)[C@H]2Nc1ncnc2[nH]c(C3CC3)cc12 [EP-0040726] has what recorded Mito-Safety Index (highest safe dose/EC50)?
**Result** 100.89

Cited source: patent US20240018146A1
